MEASURED TARGET: Cellular tumor antigen p53 (Homo sapiens) (UniProt P04637)
Sequence (P04637 whole entry, looked up): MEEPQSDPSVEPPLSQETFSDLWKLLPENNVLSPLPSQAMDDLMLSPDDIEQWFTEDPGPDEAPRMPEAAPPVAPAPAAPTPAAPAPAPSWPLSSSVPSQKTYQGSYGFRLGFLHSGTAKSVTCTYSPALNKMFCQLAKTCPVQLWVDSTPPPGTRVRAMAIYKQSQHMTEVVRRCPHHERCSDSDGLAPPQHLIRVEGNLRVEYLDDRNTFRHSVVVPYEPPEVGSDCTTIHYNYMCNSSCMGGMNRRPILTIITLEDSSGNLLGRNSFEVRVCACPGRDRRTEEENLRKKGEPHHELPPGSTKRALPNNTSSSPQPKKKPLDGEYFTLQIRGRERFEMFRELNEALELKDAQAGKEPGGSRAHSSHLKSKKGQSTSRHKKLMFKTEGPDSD
ASSAY OVERVIEW: TOX21_p53_BLA_p2_ratio: Tox21 HCT-116 p53 Agonism Beta-lactamase Assay, Ratio, Phase 2 (AID 2283592)
Results filed as inconclusive are left out. Active and inactive are the calls of the source. How the source made its calls: active means hit-call score of the fitted dose curve at least 0.9, where 1 is the maximum; inconclusive means response in the unintended direction; inactive means score below 0.9.
ENDPOINT: AC50

Observed AC50 on Cellular tumor antigen p53 (Homo sapiens) (UniProt P04637) for CC[C@H]1NC(=O)[C@@H](NC(=O)c2ncccc2O)[C@@H](C)OC(=O)[C@H](c2ccccc2)NC(=O)[C@@H]2CC(=O)CCN2C(=O)[C@H](Cc2ccccc2)N(C)C(=O)[C@@H]2CCCN2C1=O , please.
inactive

Record lookup: for Cellular tumor antigen p53 (Homo sapiens) (UniProt P04637), what AC50 belongs to CC(=O)OC(C)OC(=O)C(C)c1ccc(-c2ccccc2)c(F)c1 (centres undefined) ?
inactive

State its AC50 on Cellular tumor antigen p53 (Homo sapiens) (UniProt P04637): CC1(C)N=C(N)N=C(N)N1c1ccc(Cl)cc1
28.2 µM (active)

Checklist item: AC50 tested on Cellular tumor antigen p53 (Homo sapiens) (UniProt P04637), entry CC1CS(=O)(=O)CCN1N=Cc1ccc([N+](=O)[O-])o1 (centres undefined) , value?
inactive

----------
ASSAY OVERVIEW: TOX21_p53_BLA_p5_viability: Viability Assessment in the Tox21 HCT-116 p53 Agonism Beta-lactamase Assay, Phase 5 (AID 2283600)
Records with an inconclusive call do not appear. Calls of active or inactive are those of the source. The calls were made as follows: active = hit-call score of the fitted dose curve at least 0.9, where 1 is the maximum; inconclusive = response in the unintended direction; inactive = score below 0.9.
Outcomes you can answer with include only these: active, inactive

Hey, what did the test say about CC(C)c1ccc2sc3ccccc3c(=O)c2c1 ?
inactive

Short answer needed: outcome of this test for C[N+]1(CC2COC(c3ccccc3)(C3CCCCC3)O2)CCCCC1 (stereo unspecified) ?
inactive

Please indicate how the test categorized OC[C@@H](O)C(O)[C@@H](O)CO (stereo partly specified) .
inactive

// param item: CN(C)c1ccc(C2(c3ccc(N(C)C)cc3)OC(=O)c3cc(N(C)C)ccc32)cc1 ; yields the recorded call
inactive

I would be grateful if you could indicate the recorded call for O=C(O)CNCC(=O)O .
inactive

Could you check what this test reported for COc1cc(C(=O)NS(=O)(=O)c2ccccc2C)ccc1Cc1cn(C)c2ccc(NC(=O)OC3CCCC3)cc12 ?
active

Answer briefly: the call reported for CCCCC(O)c1ccccc1 (stereo unspecified) in this assay.
inactive

Which result was noted for this compound in the test: CCCCCCCC/C=C\CCCCCCCC(=O)N(CCO)CCO
inactive

Test call, this compound: O=C(O)Cc1ccccc1Oc1ccc(Cl)cc1Cl
inactive

How was NS(=O)(=O)c1cc2c(cc1Cl)NC(C1CC3C=CC1C3)NS2(=O)=O (stereo unspecified) classified in this test?
inactive

Identify the outcome logged in this assay for the compound shown: CCCC(C)c1ccccc1O (stereo unspecified)
inactive

In this assay, the call recorded for CCN1CCOCC1 was what?
inactive

What did this assay record as the result for CC=CC1=C(C(=O)O)N2C(=O)[C@@H](NC(=O)[C@H](N)c3ccc(O)cc3)[C@H]2SC1 ?
inactive

Call for entry NC[C@@H]1CC[C@@H](N)[C@@H](O[C@H]2[C@H](O)[C@@H](O[C@H]3O[C@H](CO)[C@@H](O)[C@H](N)[C@H]3O)[C@H](N)C[C@@H]2N)O1 :
inactive

Tell me the assay call for CCCCOC(=O)CO please.
inactive

Write down the call the test reported for this compound. Item: NC(CSCC(=O)O)C(=O)O (stereo unspecified)
inactive

Which outcome was entered for the compound CCOc1nc2cccc(C(=O)O)c2n1Cc1ccc(-c2ccccc2-c2nn[nH]n2)cc1 in this test?
active

// outcome(item) with item = C=CCN1C[C@H](C(=O)N(CCCN(C)C)C(=O)NCC)C[C@@H]2c3cccc4[nH]cc(c34)C[C@H]21
inactive

Status in this test for CN1C(=O)C[C@@H](C(=O)N[C@@H](Cc2cnc[nH]2)C(=O)N2CCC[C@H]2C(N)=O)NC1=O ?
inactive

What classification did CCOC(=O)c1ccc(NC(=O)CN2CCCCC2)cc1 end up with in this test?
inactive

State the result this test recorded for O=C1C(c2[nH]c3ccccc3c2O)=Nc2ccccc21 .
inactive

Which result was noted for this compound in the test: COc1cc2[nH]c(C)c(CCN3CCN(c4ccccc4)CC3)c2cc1OC
inactive

Hi team, can someone confirm the assay call for NC(=O)c1ncn([C@@H]2O[C@H](CO)[C@@H](O)[C@H]2O)c1O ?
inactive

Identify the outcome logged in this assay for the compound shown: CCCNCC(O)COc1ccccc1C(=O)CCc1ccccc1 (stereo unspecified)
inactive

For C[C@H]1O[C@@H](O[C@H]2CC[C@@]3(C)[C@H](CC[C@@H]4[C@@H]3C[C@@H](O)[C@]3(C)[C@@H](C5=CC(=O)OC5)CC[C@]43O)C2)C[C@H](O)[C@@H]1O[C@H]1C[C@H](O)[C@H](O[C@H]2C[C@H](O)[C@H](O[C@@H]3O[C@H](CO)[C@@H](O)[C@H](O)[C@H]3O)[C@@H](C)O2)[C@@H](C)O1 , which call appears in the assay record?
active

Please share the test call associated with CC12CCC(CC1=O)C2(C)C (stereo unspecified) .
inactive

----------
MEASURED TARGET: Cellular tumor antigen p53 (Homo sapiens) (UniProt P04637)
ASSAY OVERVIEW: TOX21_p53_BLA_p5_ratio: Tox21 HCT-116 p53 Agonism Beta-lactamase Assay, Ratio, Phase 5 (AID 2283599)
Inconclusive results are not listed. Calls of active or inactive are those of the source. How the source made its calls: active means hit-call score of the fitted dose curve at least 0.9, where 1 is the maximum; inconclusive means response in the unintended direction; inactive means score below 0.9.
Entry note: the call must match one of class 1 = active, class 0 = inactive

Tell me the recorded outcome of this test for CC(C)c1nc(N(C)S(C)(=O)=O)nc(-c2ccc(F)cc2)c1/C=C/C(O)CC(O)CC(=O)O (centres undefined) .
class 0

Kindly provide the recorded test outcome for the following molecule: Fc1ccc([C@@H]2CCNC[C@H]2COc2ccc3c(c2)OCO3)cc1
class 0

Short answer needed: outcome of this test for CC1=C(/C=C/C(C)=C/C=C/C(C)=C\C=O)C(C)(C)CCC1 ?
class 1

So what was the verdict on CCC(=C(CC)c1ccc(O)cc1)c1ccc(O)cc1 in this test?
class 1

Status in this test for O=C(NN=Cc1ccc([N+](=O)[O-])o1)c1ccc(O)cc1 ?
class 1

Which outcome did this test record for the molecule COc1cc2c(N3CCN(C(=O)Nc4ccc(OC(C)C)cc4)CC3)ncnc2cc1OCCCN1CCCCC1 ?
class 1

Given CCOC(=O)CC(=O)OCC , state the outcome it received in this test.
class 0

Test call, this molecule: CCCCCCCCOc1ccccc1C(=O)Nc1ccc(C(=O)OCC[N+](C)(CC)CC)cc1
class 0

I would be grateful if you could indicate the recorded call for C=Cc1c(C)c2cc3[nH]c(cc4nc(cc5nc(cc1[nH]2)C(C)=C5CCC(=O)O)C(CCC(=O)O)=C4C)c(C)c3C=C .
class 0

Could you please tell me the result logged for CC1(O)CSC(C)(O)CS1 (centres undefined) in this assay?
class 0

Kindly provide the recorded test outcome for the following molecule: C[C@]1(Cn2ccnn2)[C@H](C(=O)O)N2C(=O)C[C@H]2S1(=O)=O
class 0

Status in this test for CC[N+]1(CC)CCC(=C(c2ccccc2)c2ccccc2)C1C (centres undefined) ?
class 0

Would you mind telling me which call this test gave NC[C@@H]1CC[C@@H](N)[C@@H](O[C@H]2[C@H](O)[C@@H](O[C@H]3O[C@H](CO)[C@@H](O)[C@H](N)[C@H]3O)[C@H](N)C[C@@H]2N)O1 ?
class 0

How did this test come out for CCCCCCCCCCCCCCC(=O)NC(CO)CCCCCCCCCCCCCC (centres undefined) ?
class 0

----------
ASSAY OVERVIEW: TOX21_p53_BLA_p3_viability: Viability Assessment in the Tox21 HCT-116 p53 Agonism Beta-lactamase Assay, Phase 3 (AID 2283593);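 further: cells exposed to compound for 16 h before reading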
Records with an inconclusive call do not appear. Calls of active or inactive are those of the source. Rule for the calls: active = hit-call score of the fitted dose curve at least 0.9, where 1 is the maximum; inconclusive = response in the unintended direction; inactive = score below 0.9.
ENDPOINT: AC50

Endpoint output: AC50 of NCCc1ccc(O)c(O)c1 . Value?
inactive

Please give the measured AC50 for this compound: CC(C)(C)c1ccc(C(=O)CCCN2CCC(OC(c3ccccc3)c3ccccc3)CC2)cc1
31.1 µM (active)

Which AC50 value is on record for CCC[C@@H]1C[C@@H](C(=O)N[C@@H]([C@H]2O[C@H](SC)[C@H](O)[C@@H](O)[C@H]2O)[C@@H](C)O)N(C)C1 ?
inactive

I am curious: what AC50 value has been reported for C=CC(=O)Nc1cc2c(Nc3ccc(F)c(Cl)c3)ncnc2cc1OCCCN1CCOCC1 ?
38.7 µM (active)

Please give the measured AC50 for this compound: Cc1cccc2nccnc12
inactive

AC50 lookup needed for CN(C(=O)C(Cl)Cl)c1ccc(OC(=O)c2ccco2)cc1 , thanks.
inactive

Further cases:
# get_value(readout='AC50', item= O=C(O)C[C@H](NC(=O)OCc1ccccc1)C(=O)O )
inactive

Fill blank: measured AC50 of the compound CCCCOCCOCCOCCCC is ____.
inactive

What value of AC50 has been recorded for this entry: C[C@]1(Cn2ccnn2)[C@H](C(=O)O)N2C(=O)C[C@H]2S1(=O)=O
inactive

Return reported AC50; argument: O=C1C(=Cc2cccs2)CCCC1=Cc1cccs1
inactive

Which AC50 reading was recorded for the compound CC(NCCC(c1ccccc1)c1ccccc1)c1ccccc1 (configuration not stated) ?
inactive

Field request: AC50 | item: CC(S)C(=O)NCC(=O)O (configuration not stated)
inactive

What value of AC50 has been recorded for this entry: O=C(O)c1ccccc1C(=O)O
inactive

Consider the compound shown here: CN=C(N)NCCC[C@H](N)C(=O)O What is its recorded AC50?
inactive
